Hello, the source for this data is patent US20070173488A1, in case you need it.

- Tested on: GTL16 cells
- protocol_summary: 96-well XTT cell survival assay (GTL16 cells)
- Type: cell-based
- conditions_used: Homo sapiens, GTL 16, 72 hours
Kindly supply the reported IC50 values for the records listed here.

The following molecules have reported results that may help.
INSERT INTO measurements (entry_smiles, tested_target, value_kind, observed_measurement) VALUES
  ('O=C(Nc1cc[nH]n1)Nc1nc2[nH]nc(-n3cncc3-c3ccccc3Cl)c2s1', 'GTL16 cells', 'IC50', '< 100 nM'),
  ('O=C(Nc1nc2[nH]nc(-n3cncc3-c3c(Cl)cccc3Cl)c2s1)C1CC1', 'GTL16 cells', 'IC50', '< 100 nM'),
  ('O=C(Nc1nc2[nH]nc(-n3cncc3-c3ccccc3Cl)c2s1)C1CC1', 'GTL16 cells', 'IC50', '100 to 1000 nM'),
  ('O=C(Nc1nc2[nH]nc(-n3cncc3-c3ccccc3)c2s1)C1CC1', 'GTL16 cells', 'IC50', '1000 to 10000 nM'),
  ('O=C(Nc1nc2[nH]nc(-n3cncc3-c3cccc(F)c3F)c2s1)C1CC1', 'GTL16 cells', 'IC50', '1000 to 10000 nM');

In the following, a different molecule is considered.
IC50 for O=C(Nc1nc2[nH]nc(-n3cncc3-c3c(Cl)ccc(Cl)c3Cl)c2s1)C1CC1 ?
100 to 1000 nM
